tested on: foxtail, giant; experiment: Test A preemergence; format: in vivo, Setaria faberii; conditions: 500 g ai/ha, 0 to 100 scale (0 no effect, 100 complete control), approx. 10 d

>  <structureSmilesString>
CCc1nc(-c2cccc(C(F)(F)F)c2)nn1Cc1ccnc(C(F)(F)F)c1

>  <assayedSystem>
foxtail, giant

>  <Plant response rating, Foxtail, Giant>
90

$$$$
>  <structureSmilesString>
CCOc1nc(-c2ccccc2)nn1Cc1ccnc(C(F)(F)F)c1

>  <assayedSystem>
foxtail, giant

>  <Plant response rating, Foxtail, Giant>
100

$$$$
>  <structureSmilesString>
CCCc1nc(-c2ccc(F)c(F)c2)nn1Cc1ccnc(C(F)(F)F)c1

>  <assayedSystem>
foxtail, giant

>  <Plant response rating, Foxtail, Giant>
100

$$$$

###

system: barnyardgrass; assay: Test B flooded paddy test; type: in vivo, Echinochloa crus-galli; settings: 250 g ai/ha, applied to paddy water at 2-leaf stage, visual rating after 13 to 15 d, scale 0 (no effect) to 100 (complete control)
readoutLabel: Plant response rating, Barnyardgrass, Flood

>  <structureSmilesString>
CCCc1nc(-c2ccc(Cl)cc2)nn1Cc1ccnc(C(F)(F)F)c1

>  <result>
0

$$$$
>  <structureSmilesString>
CSc1nc(-c2ccc(F)cc2)nn1Cc1ccnc(C(F)(F)F)c1

>  <result>
80

$$$$
>  <structureSmilesString>
COc1nc(-c2ccccc2)nn1Cc1ccnc(C(F)(F)F)c1

>  <result>
0

$$$$
>  <structureSmilesString>
CCOc1nc(-c2ccccc2)nn1Cc1ccnc(C(F)(F)F)c1

>  <result>
50

$$$$

###

system: corn; experiment: Test C postemergence; format: in vivo, Zea mays; conditions: 125 g ai/ha
readoutLabel: Plant response rating (scale of 0 to 100 where 0 is no effect and 100 is complete control)

>  <structureSmilesString>
CCCOc1nc(-c2ccccc2)nn1Cc1ccnc(C(F)(F)F)c1

>  <readoutNumber>
25

$$$$
>  <structureSmilesString>
COc1nc(-c2ccccc2)nn1Cc1ccnc(C(F)(F)F)c1

>  <readoutNumber>
25

$$$$
>  <structureSmilesString>
CCOc1nc(-c2ccccc2)nn1Cc1ccnc(C(F)(F)F)c1

>  <readoutNumber>
10

$$$$
>  <structureSmilesString>
CCOc1nc(-c2ccc(F)cc2)nn1Cc1ccnc(C(F)(F)F)c1

>  <readoutNumber>
25

$$$$
>  <structureSmilesString>
Fc1ccc(-c2nc(OCC(F)(F)F)n(Cc3ccnc(C(F)(F)F)c3)n2)cc1

>  <readoutNumber>
25

$$$$
>  <structureSmilesString>
FC(F)(F)COc1nc(-c2ccc(Cl)cc2)nn1Cc1ccnc(C(F)(F)F)c1

>  <readoutNumber>
20

$$$$

###

tested on: corn; test: Test C preemergence; format: in vivo, Zea mays; settings: Corn, preemergence, 250 g ai/ha
Mark met for reported Plant response rating (scale of 0 to 100 where 0 is no effect and 100 is complete control) of 40 or greater; mark not met for anything smaller.

>  <structureSmilesString>
CCOc1nc(-c2ccc(F)cc2)nn1Cc1ccnc(C(F)(F)F)c1

>  <answerLabel>
met

$$$$
>  <structureSmilesString>
COc1nc(-c2ccc(F)cc2)nn1Cc1ccnc(C(F)(F)F)c1

>  <answerLabel>
met

$$$$
>  <structureSmilesString>
CCOc1nc(-c2ccccc2)nn1Cc1ccnc(C(F)(F)F)c1

>  <answerLabel>
met

$$$$
>  <structureSmilesString>
COc1nc(-c2ccccc2)nn1Cc1ccnc(C(F)(F)F)c1

>  <answerLabel>
not met

$$$$

###

tested on: pigweed; assay: Test A postemergence; type: in vivo, Amaranthus retroflexus; conditions: 125 g ai/ha, 0 to 100 scale (0 no effect, 100 complete control), approx. 10 d
Description: […]

>  <compound>
CCc1nc(-c2ccc(F)cc2)nn1Cc1ccnc(C(F)(F)F)c1 [Compound 2]

>  <Plant response rating, Pigweed>
100

$$$$
>  <compound>
COc1nc(-c2ccc(OC(F)(F)F)cc2)nn1Cc1ccnc(C(F)(F)F)c1 [Compound 40]

>  <Plant response rating, Pigweed>
70

$$$$
>  <compound>
CCOc1nc(-c2ccc(Cl)cc2)nn1Cc1ccnc(C(F)(F)F)c1 [Compound 26]

>  <Plant response rating, Pigweed>
100

$$$$
>  <compound>
Cc1nc(-c2ccc(C(F)(F)F)cc2)nn1Cc1cccc(C(F)(F)F)c1 [Compound 3]

>  <Plant response rating, Pigweed>
60

$$$$
>  <compound>
CCc1nc(-c2cccc(C(F)(F)F)c2)nn1Cc1ccnc(C(F)(F)F)c1 [Compound 11]

>  <Plant response rating, Pigweed>
80

$$$$
>  <compound>
Cc1nc(-c2ccc(C(F)(F)F)cc2)nn1Cc1cccc(OC(F)(F)F)c1 [Compound 4]

>  <Plant response rating, Pigweed>
40

$$$$
>  <compound>
COc1nc(-c2ccccc2)nn1Cc1ccnc(C(F)(F)F)c1 [Compound 32]

>  <Plant response rating, Pigweed>
90

$$$$
>  <compound>
CCOc1nc(-c2ccccc2)nn1Cc1ccnc(C(F)(F)F)c1 [Compound 27]

>  <Plant response rating, Pigweed>
100

$$$$
>  <compound>
CCCOc1nc(-c2ccc(C(F)(F)F)cc2)nn1Cc1ccnc(C(F)(F)F)c1 [Compound 41]

>  <Plant response rating, Pigweed>
90

$$$$

###

system: chamomile; experiment: Test D preemergence; format: in vivo, Matricaria inodora; conditions: 16 g ai/ha, 0 is no effect, 100 is complete control
Plant response rating (0 to 100), Chamomile listing for selected compounds.
readoutLabel: Plant response rating (0 to 100), Chamomile

>  <structureSmilesString>
Fc1ccc(-c2nc(OCC(F)(F)F)n(Cc3ccnc(C(F)(F)F)c3)n2)cc1

>  <assayedSystem>
chamomile

>  <readoutNumber>
30

$$$$
>  <structureSmilesString>
FC(F)(F)COc1nc(-c2ccc(Cl)cc2)nn1Cc1ccnc(C(F)(F)F)c1

>  <assayedSystem>
chamomile

>  <readoutNumber>
30

$$$$
>  <structureSmilesString>
COc1nc(-c2ccc(Cl)cc2)nn1Cc1ccnc(C(F)(F)F)c1

>  <assayedSystem>
chamomile

>  <readoutNumber>
0

$$$$
>  <structureSmilesString>
CCOc1nc(-c2ccc(C(F)(F)F)cc2)nn1Cc1ccnc(C(F)(F)F)c1

>  <assayedSystem>
chamomile

>  <readoutNumber>
95

$$$$

###

Plant response rating (scale of 0 to 100 where 0 is no effect and 100 is complete control) listing for selected compounds.
tested on: pigweed; experiment: Test C postemergence; format: in vivo, Amaranthus retroflexus; details: 31 g ai/ha
readoutLabel: Plant response rating (scale of 0 to 100 where 0 is no effect and 100 is complete control)

>  <structureSmilesString>
COc1nc(-c2ccc(F)cc2)nn1Cc1ccnc(C(F)(F)F)c1

>  <result>
85

$$$$
>  <structureSmilesString>
FC(F)(F)COc1nc(-c2ccc(Cl)cc2)nn1Cc1ccnc(C(F)(F)F)c1

>  <result>
95

$$$$
>  <structureSmilesString>
CCOc1nc(-c2ccccc2)nn1Cc1ccnc(C(F)(F)F)c1

>  <result>
85

$$$$
>  <structureSmilesString>
Fc1ccc(-c2nc(OCC(F)(F)F)n(Cc3ccnc(C(F)(F)F)c3)n2)cc1

>  <result>
95

$$$$
>  <structureSmilesString>
COc1nc(-c2ccc(C(F)(F)F)cc2)nn1Cc1ccnc(C(F)(F)F)c1

>  <result>
100

$$$$

###

tested on: oat, wild; experiment: Test C postemergence; type: in vivo, Avena fatua; conditions: 250 g ai/ha
Decide using Plant response rating (scale of 0 to 100 where 0 is no effect and 100 is complete control) alone. Strictly below 40: Y. Equal to or above 40: N.

>  <structureSmilesString>
CCCOc1nc(-c2ccccc2)nn1Cc1ccnc(C(F)(F)F)c1

>  <answerLabel>
Y

$$$$
>  <structureSmilesString>
CCOc1nc(-c2ccc(C(F)(F)F)cc2)nn1Cc1ccnc(C(F)(F)F)c1

>  <answerLabel>
N

$$$$
>  <structureSmilesString>
FC(F)(F)COc1nc(-c2ccccc2)nn1Cc1ccnc(C(F)(F)F)c1

>  <answerLabel>
Y

$$$$
>  <structureSmilesString>
CCc1nc(-c2ccc(C(F)(F)F)cc2)nn1Cc1ccnc(C(F)(F)F)c1

>  <answerLabel>
Y

$$$$
>  <structureSmilesString>
FC(F)(F)COc1nc(-c2ccc(Cl)cc2)nn1Cc1ccnc(C(F)(F)F)c1

>  <answerLabel>
N

$$$$
>  <structureSmilesString>
COc1nc(-c2ccc(Cl)cc2)nn1Cc1ccnc(C(F)(F)F)c1

>  <answerLabel>
Y

$$$$

###

system: wheat; assay: Test A postemergence; assay type: in vivo, Triticum aestivum; settings: Triticum aestivum, post-emergence, 240 h, 500 g ai/ha, 0 to 100 scale (0 no effect, 100 complete control), approx. 10 d, read-out: Plant response rating, Wheat
Text: […]
plant injury at 500 g/ha listing for selected compounds.

>  <compound>
Cn1nc(-c2ccc(F)cc2)nc1C(O)c1ccnc(C(F)(F)F)c1 (centres unmarked) [Compound 14]

>  <plant injury at 500 g/ha>
30%

$$$$
>  <compound>
COc1nc(-c2ccc(F)cc2)nn1Cc1ccnc(C(F)(F)F)c1 [Compound 9]

>  <plant injury at 500 g/ha>
10%

$$$$
>  <compound>
CCCn1nc(-c2ccc(F)cc2)nc1Cc1ccnc(C(F)(F)F)c1 [Compound 17]

>  <plant injury at 500 g/ha>
80%

$$$$
>  <compound>
CCOc1nc(-c2ccc(F)cc2)nn1Cc1ccnc(C(F)(F)F)c1 [Compound 8]

>  <plant injury at 500 g/ha>
100%

$$$$
>  <compound>
CCn1nc(-c2ccc(F)cc2)nc1C(=O)c1ccnc(C(F)(F)F)c1 [Compound 19]

>  <plant injury at 500 g/ha>
0%

$$$$
